Ref: patent US20240182575A1

# testedSystem: T1, HuCD80-HuIgG1 (fusion protein of the extracellular part of human CD80 and human Fc gamma 1, R&D Systems Cat … (human, UniProt P33681 35-242))
# T1 construct: extracellular domain; bought, produced in NS0 cells; also called CD80-IgG1; CD80-Ig; not shown: human Fc gamma 1
# T1 sequence (looked up): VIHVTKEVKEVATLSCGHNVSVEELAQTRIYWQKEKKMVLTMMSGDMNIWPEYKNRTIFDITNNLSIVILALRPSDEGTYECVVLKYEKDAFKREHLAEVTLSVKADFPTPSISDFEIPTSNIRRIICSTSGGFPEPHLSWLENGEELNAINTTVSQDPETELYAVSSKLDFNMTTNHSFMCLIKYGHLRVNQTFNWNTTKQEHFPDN
# protocolDetails: ELISA, periplasmic extract on coated antigen, anti-myc detection

{"binder": "CD8086PMP1D1 (VHH, not shown: C-terminal c-myc tag and His6 tag) VHH: EVQLVESGGGLVQAGGSLRLSCAASGRTFSSKAMGWFRQAPGKERDFVAAITWSGGSTYYADHVKGRFTISRDNAKNTVYLQMNSLKPEDTAVYYCATNPYGLGQVGYDYWGQGTQVTVSS", "OD, OD": 1.89}
{"binder": "CD8086PMP2A7 (VHH, not shown: C-terminal c-myc tag and His6 tag) VHH: EVQLVESGGGLVQAGGSLRLSCAASGRTFSSKAMGWFRQAPGKERDFVAAITWSGGSTYYADHVKGRFTISRDNAKNTVYLQMNSLKPEDTAVYYCATNPYGLGQVGYDYWGQGTQVTVSS", "OD, OD": 1.71}
{"binder": "CD8086PMP1A3 (VHH, not shown: C-terminal c-myc tag and His6 tag) VHH: EVQLVESGGGLVQAGGSLRLSCAASGPTSSSYSMGWFRQAPGKEREFVAAINWSHGVTYYADSVKGRFTISRDIAKNTVYLQMNSLKPEDTAVYYCAANEYGLGSSIYAYKHWGQGTQVTVSS", "OD, OD": 1.92}
{"binder": "CD8086PMP2E6 (VHH, not shown: C-terminal c-myc tag and His6 tag) VHH: EVQLVESGGGLVQAGGSLRLSCAASGSIFSIYDMGWYRQAPGKQRVLVATITSGGSTNYADSVKGRFTISRDDAKNTVYLQMNSLKPEDTAVYYCNAIAHEEGVYRWDFWGQGTQVTVSS", "OD, OD": 1.52}
{"binder": "CD8086PMP2F5 (VHH, not shown: C-terminal c-myc tag and His6 tag) VHH: EVQLVKSGGGLVQAGGSLRLSCAASGSIFSIYDMGWYRQAPGKQRELVAAITSGGSTNYADSVKGRFTISRDNAKNTVYLQMNSLKPEDTAVYYCNAIAYEEGVYRWDFWGQGTQVTVSS", "OD, OD": 1.65}
{"binder": "CD8086PMP1B2 (VHH, not shown: C-terminal c-myc tag and His6 tag) VHH: EVQLVESGGGLVQAGGSLRLSCAASGRSFSSYVMGWFRQAPGKEREFVAAIIGRDIGTYYADSVKGRFTISRDNAKTTVYLQMNALKPEDTAVYYCAADSRSRLSGIRSAYDYWGQGTVTVSS", "OD, OD": 1.99}
